Test details: qHTS Assay for Lipid Storage Modulators (AID 1519)
Applied conditions: Drosophila S3 cells, BODIPY lipid droplet/cell ratio, laser cytometry; measured here: lipid channel max response; cells loaded with oleic acid
Description: NIH Molecular Libraries Probe Production Centers Network [MLPCN] NIH Chemical Genomics Center [NCGC] Assay Submitter (PI): Beller, Mathias; Max-Planck-Institut fur Biophysikalische Chemie […] We dispensed 4 uL of cells at 1.25 x 10^6 cells/mL into LoBase Aurora COC 1,536-well plates (black walled, clear bottom) with a bottle-valve solenoid-based dispenser (Aurora) to obtain 5,000 cells/well. […] The ratio of the total intensity in PMT channel 1 over total intensity of channel 3 was also calculated. […]
Inconclusive results are not listed.
Think of 20% as a floor: if max response stands on it or above, it is Fulfilled; beneath it, Not fulfilled.

CCCCCCOc1ccccc1C(N)=O
Fulfilled
CN(C)CCC(c1ccc(Cl)cc1)c1ccccn1 (stereo not drawn)
Fulfilled
COc1cc(OC)c(/C=C2/C(=O)Nc3ccccc32)c(OC)c1
Fulfilled

Alright, here's another molecule for you.
Determine whether measured max response meets or exceeds 20% for "N#C/C(=C\c1ccc(O)c(O)c1)C(=O)c1ccc(O)c(O)c1"
Not fulfilled
